Each entry below carries its reported solubility (solute concentration completely dissolved).
Assay: Evaluation of solubility in organic solvents (visual observation of complete dissolution)
Format: physicochemical
Settings: mesitylene, 100° C.

As a guide, the following entries are already answered.
| compound | measured.value |
| --- | --- |
| FC(F)(F)c1ccc(-c2ccc(-c3c4c(c(-c5ccc(-c6ccc(C(F)(F)F)cc6)s5)c5nsnc35)N=S=N4)s2)cc1 [Compound (RC2), reference compound] | < 0.03 wt % |
| FC(F)(F)Sc1ccc(-c2ccc(-c3c4c(c(-c5ccc(-c6ccc(SC(F)(F)F)cc6)s5)c5nsnc35)N=S=N4)s2)cc1 [Compound (RC5), reference compound] | < 0.03 wt % |
| CCCCCCCCCCC(F)(F)c1cccc(-c2ccc(-c3c4c(c(-c5ccc(-c6cccc(C(F)(F)CCCCCCCCCC)c6)s5)c5nsnc35)N=S=N4)s2)c1 | ≥ 0.5 wt % |
| FC(F)(F)Oc1ccc(-c2ccc(-c3c4c(c(-c5ccc(-c6ccc(OC(F)(F)F)cc6)s5)c5nsnc35)N=S=N4)s2)cc1 [Compound (RC1), reference compound] | < 0.03 wt % |

Q. Give the measured solubility (solute concentration completely dissolved) for CCCCCCc1ccc(-c2ccc(-c3c4c(c(-c5ccc(-c6ccc(CCCCCC)c(OC(F)(F)F)c6)s5)c5nsnc35)N=S=N4)s2)cc1OC(F)(F)F
A. ≥ 0.5 wt %

Q. Give the measured solubility (solute concentration completely dissolved) for CCCCCCCCCCCCc1ccc(-c2ccc(-c3c4c(c(-c5ccc(-c6ccc(CCCCCCCCCCCC)c(C(F)(F)F)c6)s5)c5nsnc35)N=S=N4)s2)cc1C(F)(F)F
A. ≥ 0.3 wt %
